Attribution: patent US20240287019A1

Biological target: human Cav3.2 T-type calcium channels (Homo sapiens)
Sequence (O95180 whole entry): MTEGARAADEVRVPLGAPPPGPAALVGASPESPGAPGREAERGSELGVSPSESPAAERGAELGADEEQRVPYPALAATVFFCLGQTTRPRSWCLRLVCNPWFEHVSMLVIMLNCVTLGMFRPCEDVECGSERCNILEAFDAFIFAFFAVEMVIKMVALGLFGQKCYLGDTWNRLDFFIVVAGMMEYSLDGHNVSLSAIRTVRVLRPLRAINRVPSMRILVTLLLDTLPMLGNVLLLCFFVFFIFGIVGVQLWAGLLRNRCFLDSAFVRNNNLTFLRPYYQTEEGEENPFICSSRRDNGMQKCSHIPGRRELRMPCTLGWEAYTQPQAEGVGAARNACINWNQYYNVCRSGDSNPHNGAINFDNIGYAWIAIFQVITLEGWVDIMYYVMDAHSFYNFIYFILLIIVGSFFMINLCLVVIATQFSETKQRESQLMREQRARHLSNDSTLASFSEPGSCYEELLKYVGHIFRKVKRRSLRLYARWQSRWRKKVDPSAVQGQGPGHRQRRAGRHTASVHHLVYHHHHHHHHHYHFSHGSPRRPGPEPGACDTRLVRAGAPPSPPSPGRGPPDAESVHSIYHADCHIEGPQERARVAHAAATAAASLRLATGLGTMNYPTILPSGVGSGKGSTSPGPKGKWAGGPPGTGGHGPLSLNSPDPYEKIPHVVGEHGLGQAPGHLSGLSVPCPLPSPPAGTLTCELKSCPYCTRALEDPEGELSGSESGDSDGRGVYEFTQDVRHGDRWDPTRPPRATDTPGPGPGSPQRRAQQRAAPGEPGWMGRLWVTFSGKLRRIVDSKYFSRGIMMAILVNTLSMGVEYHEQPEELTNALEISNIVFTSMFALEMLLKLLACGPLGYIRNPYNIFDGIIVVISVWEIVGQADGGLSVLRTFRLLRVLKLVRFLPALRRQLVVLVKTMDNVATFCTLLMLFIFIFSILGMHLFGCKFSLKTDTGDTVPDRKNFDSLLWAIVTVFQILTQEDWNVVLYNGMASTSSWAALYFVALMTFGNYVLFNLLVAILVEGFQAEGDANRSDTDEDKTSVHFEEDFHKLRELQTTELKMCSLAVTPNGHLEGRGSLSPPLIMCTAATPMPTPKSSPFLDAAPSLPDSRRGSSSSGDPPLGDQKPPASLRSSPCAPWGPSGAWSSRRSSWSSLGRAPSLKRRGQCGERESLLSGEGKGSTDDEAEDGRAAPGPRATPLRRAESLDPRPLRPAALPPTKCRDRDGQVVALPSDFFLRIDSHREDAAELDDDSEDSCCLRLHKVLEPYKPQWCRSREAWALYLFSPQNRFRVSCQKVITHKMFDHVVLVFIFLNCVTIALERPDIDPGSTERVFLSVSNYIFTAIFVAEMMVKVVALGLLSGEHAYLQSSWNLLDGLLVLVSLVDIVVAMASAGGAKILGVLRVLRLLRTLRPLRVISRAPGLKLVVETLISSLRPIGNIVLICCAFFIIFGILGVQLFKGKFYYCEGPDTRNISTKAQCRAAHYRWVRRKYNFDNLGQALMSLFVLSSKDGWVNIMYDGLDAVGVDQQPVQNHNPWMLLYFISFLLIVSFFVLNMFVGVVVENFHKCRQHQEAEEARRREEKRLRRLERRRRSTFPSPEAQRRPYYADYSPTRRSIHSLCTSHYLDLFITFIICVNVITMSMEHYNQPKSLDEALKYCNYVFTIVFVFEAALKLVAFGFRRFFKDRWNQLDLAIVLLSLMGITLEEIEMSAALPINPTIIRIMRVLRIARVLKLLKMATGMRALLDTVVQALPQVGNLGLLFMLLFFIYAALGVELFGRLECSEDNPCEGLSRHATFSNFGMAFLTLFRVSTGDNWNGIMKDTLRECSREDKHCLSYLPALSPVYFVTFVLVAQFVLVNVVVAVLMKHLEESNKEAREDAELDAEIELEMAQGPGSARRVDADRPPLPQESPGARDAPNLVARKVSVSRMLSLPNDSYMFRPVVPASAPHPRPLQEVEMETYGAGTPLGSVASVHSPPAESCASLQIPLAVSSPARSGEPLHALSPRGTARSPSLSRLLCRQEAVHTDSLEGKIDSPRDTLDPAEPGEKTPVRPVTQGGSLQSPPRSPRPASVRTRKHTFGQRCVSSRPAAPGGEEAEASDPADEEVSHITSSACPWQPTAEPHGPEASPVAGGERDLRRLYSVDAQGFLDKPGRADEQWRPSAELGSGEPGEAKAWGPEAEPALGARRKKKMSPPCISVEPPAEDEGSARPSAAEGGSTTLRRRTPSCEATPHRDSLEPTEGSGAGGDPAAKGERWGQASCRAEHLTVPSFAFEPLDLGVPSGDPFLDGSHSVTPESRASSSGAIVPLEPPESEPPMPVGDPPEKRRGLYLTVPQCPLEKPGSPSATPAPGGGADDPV
Test: Whole-cell patch clamp, T channel current in HEK 293 cells forcibly expressing human Cav3.2
Settings: perfusion addition method; from percentage change in T-channel current before and after addition; n=3 to 17
Would you kindly list IC50 for each of these compounds?
Response body: numeric value in nM, unit text excluded.

Q) Fill blank: measured IC50 of the compound O=c1[nH]c2ccccc2n1C1CCN(CCCC(c2ccc(F)cc2)c2ccc(F)cc2)CC1 [Pimozide, reference compound] is ____.
A) 157

Q) Using the record for O=c1n(CCCCc2ccccc2)c2ccccc2n1C1CCN(CCCCc2ccccc2)CC1 [Compound 5] , report its IC50.
A) 461

Q) What value of measured IC50 is listed for O=c1n(CCCCc2ccccc2)c2ccccc2n1C1CCN(CCCc2ccccc2)CC1 [Compound 14] ?
A) 337

Q) # input compound: O=C(CCCc1ccccc1)N1CCC(n2c(=O)n(CCCCc3ccccc3)c3ccccc32)CC1 [Compound 15] ; wanted: its IC50
A) 153
